test system: Candida tropicalis KKP 334; experiment: Antifungal activity in vitro, serial dilution in RPMI 1640; type: cell-based; details: Table 2A; RPMI 1640, pH 7.0
Measured Antifungal activity Candida tropicalis KKP 334 MIC values are reported for all entries that follow.
Report only the number, with the unit µg/mL understood.

C[C@@H]1[C@H](O)[C@@H](C)/C=C/C=C/CC/C=C/C=C/C=C/C=C/C(O[C@H]2O[C@H](C)[C@@H](O)[C@H](N)[C@@H]2O)CC2O[C@](O)(CC(O)C(O)CCC(O)CC(O)CC(O)CC(=O)O[C@H]1C)CC(O)C2C(=O)O (stereo partly shown)	0.5

Enquiry: Tell me its Antifungal activity Candida tropicalis KKP 334 MIC given CC1C=CC=CCCC=CC=CC=CC=CC(OC2OC(C)C(O)C(N(CCCN(C)C)CC3(O)OCC(O)C(O)C3O)C2O)CC2OC(O)(CC(O)C(O)CCC(O)CC(O)CC(O)CC(=O)OC(C)C(C)C1O)CC(O)C2C(=O)O (stereo not shown) as the entry.
Return: 16

Enquiry: Identify the reported Antifungal activity Candida tropicalis KKP 334 MIC for the following entry. CC1OC(O[C@H]2/C=C/C=C/C=C/C=C/CC/C=C/C=C/[C@H](C)[C@@H](O)[C@@H](C)[C@H](C)OC(=O)C[C@H](O)C[C@H](O)C[C@H](O)CC[C@@H](O)[C@H](O)CC3(O)C[C@H](O)[C@@H](C(=O)O)[C@H](C2)O3)C(O)C(NC2CC(=O)N(c3ccc(Br)cc3)C2=O)C1O (stereo partly shown)
Return: 8

Enquiry: Hello, please tell me recorded Antifungal activity Candida tropicalis KKP 334 MIC for this one: CCN(CC)CCNC(=S)NC1C(O)C(C)OC(O[C@H]2/C=C/C=C/C=C/C=C/CC/C=C/C=C/[C@H](C)[C@@H](O)[C@@H](C)[C@H](C)OC(=O)C[C@H](O)C[C@H](O)C[C@H](O)CC[C@@H](O)[C@H](O)CC3(O)C[C@H](O)[C@@H](C(=O)O)[C@H](C2)O3)C1O (stereo partly shown)
Return: 8

* * *

system: Candida quilliermondii DSM 11947; experiment: Antifungal activity in vitro, serial dilution in RPMI 1640; assay type: cell-based; settings: Table 2B
outcomeMeasure: MIC Candida quilliermondii DSM 11947 (µg/mL)
Numbers only here, please. The scale is µg/mL.

CC1OC(O[C@H]2/C=C/C=C/C=C/C=C/CC/C=C/C=C/[C@H](C)[C@@H](O)[C@@H](C)[C@H](C)OC(=O)C[C@H](O)C[C@H](O)C[C@H](O)CC[C@@H](O)[C@H](O)CC3(O)C[C@H](O)[C@@H](C(=O)O)[C@H](C2)O3)C(O)C(NC(=O)[C@H](N)CCC(=O)OC(C)(C)C)C1O (stereo partly shown)	16
C[C@@H]1[C@H](O)[C@@H](C)/C=C/C=C/CC/C=C/C=C/C=C/C=C/[C@H](O[C@@H]2O[C@H](C)[C@@H](O)[C@H](NC(=O)[C@H](N)c3ccccc3)[C@@H]2O)C[C@@H]2O[C@](O)(C[C@@H](O)C[C@@H](O)[C@H](O)CC[C@@H](O)C[C@@H](O)CC(=O)O[C@H]1C)C[C@H](O)[C@H]2C(=O)O	16
CCN(CC)[C@@H](Cc1ccccc1)C(=O)NC1C(O)C(C)OC(O[C@H]2/C=C/C=C/C=C/C=C/CC/C=C/C=C/[C@H](C)[C@@H](O)[C@@H](C)[C@H](C)OC(=O)C[C@H](O)C[C@H](O)C[C@H](O)CC[C@@H](O)[C@H](O)CC3(O)C[C@H](O)[C@@H](C(=O)O)[C@H](C2)O3)C1O (stereo partly shown)	32

Kindly consider the entry below.
Enquiry: Find MIC Candida quilliermondii DSM 11947 for C[C@@H]1[C@H](O)[C@@H](C)/C=C/C=C/CC/C=C/C=C/C=C/C=C/C(O[C@H]2O[C@H](C)[C@@H](O)[C@H](N)[C@@H]2O)CC2O[C@](O)(CC(O)C(O)CCC(O)CC(O)CC(O)CC(=O)O[C@H]1C)CC(O)C2C(=O)O (stereo partly shown) on Candida quilliermondii DSM 11947 and write it down.
Return: 0.5

* * *

tested on: Candida tropicalis KKP 334; assay: Antifungal activity in vitro, serial dilution in RPMI 1640; assay type: cell-based; details: Table 2A; RPMI 1640, pH 7.0
Form field: Antifungal activity Candida tropicalis KKP 334 MIC (one value per entry).
The reply should be a number in µg/mL, with the unit left off.

C[C@@H]1[C@H](O)[C@@H](C)/C=C/C=C/CC/C=C/C=C/C=C/C=C/[C@H](O[C@@H]2O[C@H](C)[C@@H](O)[C@H](N(C)C)[C@@H]2O)C[C@@H]2O[C@](O)(C[C@@H](O)C[C@@H](O)[C@H](O)CC[C@@H](O)C[C@@H](O)CC(=O)O[C@H]1C)C[C@H](O)[C@H]2C(=O)O [Compound N23, N,N-dimethylnystatin A1]	4

Kindly consider the entry below.
Enquiry: Supply reported Antifungal activity Candida tropicalis KKP 334 MIC belonging to this compound: C[C@@H]1[C@H](O)[C@@H](C)/C=C/C=C/CC/C=C/C=C/C=C/C=C/[C@H](O[C@@H]2O[C@H](C)[C@@H](O)[C@H](NC3CC(=O)N(CCCN(C)C)C3=O)[C@@H]2O)C[C@@H]2O[C@](O)(C[C@@H](O)C[C@@H](O)[C@H](O)CC[C@@H](O)C[C@@H](O)CC(=O)O[C@H]1C)C[C@H](O)[C@H]2C(=O)O (some centres unmarked) [Compound N6]
Return: 8

* * *

Below, each entry is listed alongside its reported Antifungal activity Candida tropicalis KKP 334 MIC.
test system: Candida tropicalis KKP 334; experiment: Antifungal activity in vitro, serial dilution in RPMI 1640; assay type: cell-based; settings: Table 2A; RPMI 1640, pH 7.0
The answer is to be given in µg/mL; state only the numeric part.

Completed entries (count: 2):
CCN(CC)[C@@H](Cc1ccccc1)C(=O)NC1C(O)C(C)OC(O[C@H]2/C=C/C=C/C=C/C=C/CC/C=C/C=C/[C@H](C)[C@@H](O)[C@@H](C)[C@H](C)OC(=O)C[C@H](O)C[C@H](O)C[C@H](O)CC[C@@H](O)[C@H](O)CC3(O)C[C@H](O)[C@@H](C(=O)O)[C@H](C2)O3)C1O (stereo partly drawn) [Compound N46]	4
CC1OC(O[C@H]2/C=C/C=C/C=C/C=C/CC/C=C/C=C/[C@H](C)[C@@H](O)[C@@H](C)[C@H](C)OC(=O)C[C@H](O)C[C@H](O)C[C@H](O)CC[C@@H](O)[C@H](O)CC3(O)C[C@H](O)[C@@H](C(=O)O)[C@H](C2)O3)C(O)C(NC(=O)[C@@H](N)CCC(=O)OC(C)(C)C)C1O (stereo partly drawn) [Compound N35, N-L-(O-tert-butyl)glutamylnystatin A1]	16

Enquiry: Consider the molecule C[C@@H]1[C@H](O)[C@@H](C)/C=C/C=C/CC/C=C/C=C/C=C/C=C/[C@H](O[C@@H]2O[C@H](C)[C@@H](O)[C@H](NC(=S)NCCN3CCCC3)[C@@H]2O)C[C@@H]2O[C@](O)(C[C@@H](O)C[C@@H](O)[C@H](O)CC[C@@H](O)C[C@@H](O)CC(=O)O[C@H]1C)C[C@H](O)[C@H]2C(=O)O [Compound N16] . State its measured Antifungal activity Candida tropicalis KKP 334 MIC.
Return: 4

* * *

tested on: HepG2; test: Cytotoxic activity against mammalian cells in tissue culture (MTT); format: cell-based, human
As shown below, each of these compounds has a reported Cytotoxicity IC50 HepG2 value.

Solved cases below.
CC1OC(O[C@H]2/C=C/C=C/C=C/C=C/CC/C=C/C=C/[C@H](C)[C@@H](O)[C@@H](C)[C@H](C)OC(=O)C[C@H](O)C[C@H](O)C[C@H](O)CC[C@@H](O)[C@H](O)CC3(O)C[C@H](O)[C@@H](C(=O)O)[C@H](C2)O3)C(O)C(NC(=O)[C@H](N)CCC(=O)OC(C)(C)C)C1O (stereo partly drawn) [Compound N37, N-D-(O-tert-butyl)glutamylnystatin A1]	>100 µg/mL
CC1OC(O[C@H]2/C=C/C=C/C=C/C=C/CC/C=C/C=C/[C@H](C)[C@@H](O)[C@@H](C)[C@H](C)OC(=O)C[C@H](O)C[C@H](O)C[C@H](O)CC[C@@H](O)[C@H](O)CC3(O)C[C@H](O)[C@@H](C(=O)O)[C@H](C2)O3)C(O)C(NC(=O)[C@H](N)CC(=O)OC(C)(C)C)C1O (stereo partly drawn) [Compound N41, N-D-(O-tert-butyl)asparagylnystatin A1]	>100 µg/mL

Enquiry: Please list Cytotoxicity IC50 HepG2 recorded for the compound CC1OC(O[C@H]2/C=C/C=C/C=C/C=C/CC/C=C/C=C/[C@H](C)[C@@H](O)[C@@H](C)[C@H](C)OC(=O)C[C@H](O)C[C@H](O)C[C@H](O)CC[C@@H](O)[C@H](O)CC3(O)C[C@H](O)[C@@H](C(=O)O)[C@H](C2)O3)C(O)C(NC(=O)[C@H](N)Cc2cccc3ccccc23)C1O (stereo partly drawn) [Compound N39]
Return: >100 µg/mL
